Ref: paper PMC7801264

# target-entity: α7 nicotinic acetylcholine receptor (α7nAChR) (Mus musculus, UniProt P49582)
# Construct: native receptor in hippocampal CA1 pyramidal cells (brain slices)
# Sequence (P49582 23-502): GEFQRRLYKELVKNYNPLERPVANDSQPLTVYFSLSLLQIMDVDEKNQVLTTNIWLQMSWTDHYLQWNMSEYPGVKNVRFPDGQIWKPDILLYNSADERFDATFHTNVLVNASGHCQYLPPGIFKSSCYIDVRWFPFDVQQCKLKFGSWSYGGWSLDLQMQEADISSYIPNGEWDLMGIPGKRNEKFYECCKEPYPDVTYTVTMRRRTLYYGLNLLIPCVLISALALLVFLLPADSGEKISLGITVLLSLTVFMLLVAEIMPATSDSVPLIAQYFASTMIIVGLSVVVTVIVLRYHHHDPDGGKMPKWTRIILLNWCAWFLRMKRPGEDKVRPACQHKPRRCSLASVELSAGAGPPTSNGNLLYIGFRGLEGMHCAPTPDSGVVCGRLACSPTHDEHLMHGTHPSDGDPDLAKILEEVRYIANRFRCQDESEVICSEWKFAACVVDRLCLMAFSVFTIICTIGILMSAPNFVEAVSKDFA
# measurement-notes: whole cell patch-clamp of ACh-evoked inward current in mouse hippocampal slices, dose-response
property-label: EC50 (µM)
Numeric answer only, unit µM assumed.

Asked: Reported EC50 for "CC(=O)OCC[N+](C)(C)C" : what is it?
Given back: 431
